system: Providencia rettgeri ATCC 9250; test: minimal inhibitory concentration, two-fold agar dilution; type: cell-based; details: ATCC9250, Muller-Hinton agar, 37°C, 20 hours, read-out: MIC values against the standard strains
Reported Endpoint: MIC

Here is how some molecules turned out for MIC.
| Molecule | Obs Value |
| --- | --- |
| C[n+]1c(-c2ccccc2)cc(N)nc1SCC1=C(C(=O)[O-])N2C(=O)[C@@H](NC(=O)/C(=N\OC(C)(C)C(=O)O)c3csc(N)n3)[C@H]2SC1 [Example 20] | ≤ 8 ng/mL |
| CC(C)(O/N=C(\C(=O)N[C@@H]1C(=O)N2C(C(=O)[O-])=C(CSc3nc(N)cc[n+]3N)CS[C@H]12)c1csc(N)n1)C(=O)O [Example 43] | ≤ 8 ng/mL |

Give MIC for each of the items listed below.
1. Cc1c[n+](N)c(SCC2=C(C(=O)[O-])N3C(=O)[C@@H](NC(=O)/C(=N\OC(C)(C)C(=O)O)c4csc(N)n4)[C@H]3SC2)nc1N [Example 57]
2. C[n+]1ccc(N)nc1SCC1=C(C(=O)[O-])N2C(=O)[C@@H](NC(=O)/C(=N\OC(C)(C)C(=O)O)c3csc(N)n3)[C@H]2SC1 [Example 2]

1. ≤ 8 ng/mL
2. ≤ 8 ng/mL

Give MIC for each of the items listed below.
1. CCO/N=C(\C(=O)N[C@@H]1C(=O)N2C(C(=O)[O-])=C(CSc3nc(N)c(C(=O)O)c[n+]3C)CS[C@H]12)c1csc(N)n1 [Example 25]
2. CO/N=C(\C(=O)N[C@@H]1C(=O)N2C(C(=O)[O-])=C(CSc3nc(N)cc[n+]3C)CS[C@H]12)c1csc(N)n1 [Example 8]
3. CCO/N=C(\C(=O)N[C@@H]1C(=O)N2C(C(=O)[O-])=C(CSc3nc(N)c(N)c(N)[n+]3CC)CS[C@H]12)c1csc(N)n1 [Example 13]
4. C[n+]1ccc(N)nc1SCC1=C(C(=O)[O-])N2C(=O)[C@@H](NC(=O)/C(=N\O)c3csc(N)n3)[C@H]2SC1 [Example 10]

≤ 8 ng/mL
≤ 8 ng/mL
130 ng/mL
≤ 8 ng/mL

Give MIC for each of the items listed below.
1. CCO/N=C(\C(=O)N[C@@H]1C(=O)N2C(C(=O)[O-])=C(CSc3nc(N)cc[n+]3C)CS[C@H]12)c1nsc(N)n1 [Example 6]
2. CCO/N=C(\C(=O)N[C@@H]1C(=O)N2C(C(=O)[O-])=C(CSc3nc(N)cc(OCC(=O)O)[n+]3C)CS[C@H]12)c1csc(N)n1 [Example 19]
3. CCO/N=C(\C(=O)N[C@@H]1C(=O)N2C(C(=O)[O-])=C(CSc3nc(N)cc[n+]3CC)CS[C@H]12)c1nsc(N)n1 [Example 16]
4. CCO/N=C(\C(=O)N[C@@H]1C(=O)N2C(C(=O)[O-])=C(CSc3nc(N)cc[n+]3CC)CS[C@H]12)c1csc(N)n1 [Example 14]
5. CCO/N=C(\C(=O)N[C@@H]1C(=O)N2C(C(=O)[O-])=C(CSc3nc(N)c(N)c[n+]3N)CS[C@H]12)c1csc(N)n1 [Example 46]

≤ 8 ng/mL
≤ 8 ng/mL
31 ng/mL
63 ng/mL
31 ng/mL

###

tested on: Acinetobacter calcoaceticus ATCC 15437; assay: minimal inhibitory concentration, two-fold agar dilution; type: cell-based; conditions: ATCC15437, Muller-Hinton agar, 37°C, 20 hours, read-out: MIC values against the standard strains
Reported Endpoint: MIC (µg/mL)
One number for each entry, in µg/mL.

Here is how some compounds turned out for MIC.
| Smiles String | Target Of Assay | MIC (µg/mL) |
| --- | --- | --- |
| CCO/N=C(\C(=O)N[C@@H]1C(=O)N2C(C(=O)[O-])=C(CSc3nc(N)cc[n+]3CC)CS[C@H]12)c1nsc(N)n1 | Acinetobacter calcoaceticus ATCC 15437 | 8 |
| CCO/N=C(\C(=O)N[C@@H]1C(=O)N2C(C(=O)[O-])=C(CSc3nc(N)c(N)c(N)[n+]3C)CS[C@H]12)c1csc(N)n1 | Acinetobacter calcoaceticus ATCC 15437 | 8 |

Give MIC for each of the items listed below.
1. C[n+]1c(SCC2=C(C(=O)[O-])N3C(=O)[C@@H](NC(=O)/C(=N\OC(C)(C)C(=O)O)c4csc(N)n4)[C@H]3SC2)nc(N)c(N)c1N
2. CC[n+]1c(SCC2=C(C(=O)[O-])N3C(=O)[C@@H](NC(=O)/C(=N\OC(C)(C)C(=O)O)c4csc(N)n4)[C@H]3SC2)nc(N)c(N)c1N

1: 8; 2: 8
